- tested-system: Serine/threonine-protein kinase BRSK2 (Homo sapiens) (UniProt Q8IWQ3)
- Sequence (Q8IWQ3 whole entry): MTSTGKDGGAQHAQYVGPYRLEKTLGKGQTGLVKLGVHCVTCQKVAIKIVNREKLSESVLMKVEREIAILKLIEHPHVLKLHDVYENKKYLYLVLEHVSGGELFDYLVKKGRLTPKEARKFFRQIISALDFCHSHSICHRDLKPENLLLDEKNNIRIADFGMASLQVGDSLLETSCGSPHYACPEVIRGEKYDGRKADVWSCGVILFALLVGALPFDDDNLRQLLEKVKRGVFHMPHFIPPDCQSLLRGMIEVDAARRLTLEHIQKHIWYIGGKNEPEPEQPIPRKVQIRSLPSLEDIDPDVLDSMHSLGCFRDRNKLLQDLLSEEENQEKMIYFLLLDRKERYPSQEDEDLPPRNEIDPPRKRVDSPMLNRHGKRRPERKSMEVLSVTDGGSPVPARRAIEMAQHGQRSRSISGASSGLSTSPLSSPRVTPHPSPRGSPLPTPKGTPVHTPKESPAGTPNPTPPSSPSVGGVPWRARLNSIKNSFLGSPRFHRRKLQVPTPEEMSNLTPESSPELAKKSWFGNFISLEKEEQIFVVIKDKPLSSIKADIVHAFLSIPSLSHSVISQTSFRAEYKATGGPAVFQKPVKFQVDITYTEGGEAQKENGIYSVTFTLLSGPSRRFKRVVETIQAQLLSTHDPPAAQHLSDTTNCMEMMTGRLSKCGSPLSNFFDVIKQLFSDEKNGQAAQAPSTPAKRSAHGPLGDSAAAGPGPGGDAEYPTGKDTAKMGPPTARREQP
- experimental-parameters: at 10 µM
quantity: residual activity

Known residual activity results, listed for orientation:
CCN(CC)CCCCN1c2ccccc2Oc2ccc(Cl)cc21: 126%
CC(=O)O/N=C1\C(=C2\C(=O)Nc3cc(Br)ccc32)Nc2ccccc21: 21%
Oc1c2ccccc2c2c3c(cccc13)N=N2: 9%
Cn1nc2c3c(cccc31)C(=O)c1ccccc1-2: 61%
O=C1Nc2ccccc2/C1=C1/Nc2ccccc2/C1=N\OCCC(O)CO (configuration not stated): 4%

Give residual activity for each listed item.
1. O=C1NC(=O)/C(=C\c2ccc3nccnc3c2)S1
2. CO[C@H]1[C@@H](OC)C[C@H](C)[C@@H](OC)C2=CC(=O)C=C(NC(=O)/C(C)=C/C=C/[C@H](OC)[C@@H](OC(N)=O)/C(C)=C/[C@@H]1C)C2=O

-- reply
["77%", "106%"]
